STUDY_SYSTEM: T1, B3GNT2 (Homo sapiens, UniProt Q9NY97)
T1 construct: The respective ORFs of candidate genes [CD274 (NM_014143), MCL1 (NM_021960), JUNB (NM_002229), and B3GNT2 (NM_006577)] were synthesized; expressed in transfected cells; host or cells: A375 melanoma cells (lentiviral ORF overexpression)
T1 sequence (Q9NY97 1-397): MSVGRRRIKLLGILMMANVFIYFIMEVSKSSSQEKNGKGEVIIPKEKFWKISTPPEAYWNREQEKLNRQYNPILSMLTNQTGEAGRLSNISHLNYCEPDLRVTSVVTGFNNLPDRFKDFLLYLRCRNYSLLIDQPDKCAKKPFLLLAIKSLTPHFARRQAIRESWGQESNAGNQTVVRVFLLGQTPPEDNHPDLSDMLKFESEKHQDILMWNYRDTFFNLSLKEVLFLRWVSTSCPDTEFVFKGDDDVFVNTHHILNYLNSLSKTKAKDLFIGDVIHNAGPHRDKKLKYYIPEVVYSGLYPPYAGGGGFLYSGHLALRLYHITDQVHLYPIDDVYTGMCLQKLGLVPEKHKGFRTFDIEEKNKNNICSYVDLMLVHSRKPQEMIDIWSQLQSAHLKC
ASSAY_METHOD_TEXT: Co-IP of FLAG-tagged B3GNT2 followed by mass spectrometry
Format: cell-based
MEASUREMENT_PARAMETERS: Co-IP with FLAG antibody, N-terminally FLAG-tagged B3GNT2; mass spectrometry count, unit not given
Entries and their measured N-term FLAG follow.
// return a plain number; no unit text

Examples from the recorded data:
{"MOLECULE": "RCN1 (protein) KPTVRKERVVRPDSELGERPPEDNQSFQYDHEAFLGKEDSKTFDQLTPDESKERLGKIVDRIDNDGDGFVTTEELKTWIKRVQKRYIFDNVAKVWKDYDRDKDDKISWEEYKQATYGYYLGNPAEFHDSSDHHTFKKMLPRDERRFKAADLNGDLTATREEFTAFLHPEEFEHMKEIVVLETLEDIDKNGDGFVDQDEYIADMFSHEENGPEPDWVLSEREQFNEFRDLNKDGKLDKDEIRHWILPQDYDHAQAEARHLVYESDKNKDEKLTKEEILENWNMFVGSQATNYGEDLTKNHDEL", "N-term FLAG": 0}
{"MOLECULE": "FAM3C (protein) QVFEIKMDASLGNLFARSALDTAARSTKPPRYKCGISKACPEKHFAFKMASGAANVVGPKICLEDNVLMSGVKNNVGRGINVALANGKTGEVLDTKYFDMWGGDVAPFIEFLKAIQDGTIVLMGTYDDGATKLNDEARRLIADLGSTSITNLGFRDNWVFCGGKGIKTKSPFEQHIKNNKDTNKYEGWPEVVEMEGCIPQKQD", "N-term FLAG": 2}
{"MOLECULE": "SERPINE2 (protein) SHFNPLSLEELGSNTGIQVFNQIVKSRPHDNIVISPHGIASVLGMLQLGADGRTKKQLAMVMRYGVNGVGKILKKINKAIVSKKNKDIVTVANAVFVKNASEIEVPFVTRNKDVFQCEVRNVNFEDPASACDSINAWVKNETRDMIDNLLSPDLIDGVLTRLVLVNAVYFKGLWKSRFQPENTKKRTFVAADGKSYQVPMLAQLSVFRCGSTSAPNDLWYNFIELPYHGESISMLIALPTESSTPLSAIIPHISTKTIDSWMSIMVPKRVQVILPKFTAVAQTDLKEPLKVLGITDMFDSSKANFAKITTGSENLHVSHILQKAKIEVSEDGTKASAATTAILIARSSPPWFIVDRPFLFFIRHNPTGAVLFMGQINKP", "N-term FLAG": 4}

Now look at this entry.
Request: Provide one value: measured N-term FLAG of MAGT1 (protein) QRKKEMVLSEKVSQLMEWTNKRPVIRMNGDKFRRLVKAPPRNYSVIVMFTALQLHRQCVVCKQADEEFQILANSWRYSSAFTNRIFFAMVDFDEGSDVFQMLNMNSAPTFINFPAKGKPKRGDTYELQVRGFSAEQIARWIADRTDVNIRVIRPPNYAGPLMLGLLLAVIGGLVYLRRSNMEFLFNKTGWAFAALCFVLAMTSGQMWNHIRGPPYAHKNPHTGHVNYIHGSSQAQFVAETHIVLLFNGGVTLGMVLLCEAATSDMDIGKRKIMCVAGIGLVVLFFSWMLSIFRSKYHGYPYSFLMS
Response: 0
